// reported koff for each item listed
# study.target: Recombinant human his-tagged IGF R extracellular domain protein (human) (UniProt P08069)
# method.summary: SPR, Ab captured via anti-huIgG Fc, pH 7.4
Show the value, then the unit it is measured in.

binder	koff
VRDN-02050 (antibody, V domains shown) VH: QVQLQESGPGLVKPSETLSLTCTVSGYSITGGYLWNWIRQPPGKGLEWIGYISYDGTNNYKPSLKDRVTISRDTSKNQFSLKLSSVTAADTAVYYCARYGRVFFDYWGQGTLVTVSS VL: DIVMTQSPLSLPVTPGEPASISCRSSQSIVHSNGNTYLQWYLQKPGQSPQLLIYKVSNRLHGVPDRFSGSGSGTDFTLKISRVEAEDVGVYYCFQGSHVPWTFGQGTKVEIK	6.7e-05 s⁻¹
VRDN-02014 (antibody, V domains shown) VH: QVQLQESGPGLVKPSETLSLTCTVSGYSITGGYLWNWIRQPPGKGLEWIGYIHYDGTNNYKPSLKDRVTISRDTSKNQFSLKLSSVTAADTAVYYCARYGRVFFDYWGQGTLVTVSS VL: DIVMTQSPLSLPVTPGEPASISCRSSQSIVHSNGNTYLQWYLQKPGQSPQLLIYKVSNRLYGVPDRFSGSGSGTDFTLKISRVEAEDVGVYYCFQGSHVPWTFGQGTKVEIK	6.19e-05 s⁻¹

Q) Given VRDN-02017 (antibody, V domains shown) VH: QVQLQESGPGLVKPSETLSLTCTVSGYSITGGYLWNWIRQPPGKGLEWIGYISYDHTNNYKPSLKDRVTISRDTSKNQFSLKLSSVTAADTAVYYCARYGRVFFDYWGQGTLVTVSS VL: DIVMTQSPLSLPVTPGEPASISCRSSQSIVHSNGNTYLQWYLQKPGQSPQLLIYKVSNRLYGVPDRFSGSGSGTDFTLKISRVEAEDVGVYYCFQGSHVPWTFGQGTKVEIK , state its recorded koff.
A) 0.000118 s⁻¹
